Measured values drawn from the kinase profiling compilation of Christmann-Franck et al. (2016) for this set.

# ASSAY_SYSTEM: TAOK1 (human) (UniProt Q7L7X3)
# Sequence (Q7L7X3 whole entry, looked up): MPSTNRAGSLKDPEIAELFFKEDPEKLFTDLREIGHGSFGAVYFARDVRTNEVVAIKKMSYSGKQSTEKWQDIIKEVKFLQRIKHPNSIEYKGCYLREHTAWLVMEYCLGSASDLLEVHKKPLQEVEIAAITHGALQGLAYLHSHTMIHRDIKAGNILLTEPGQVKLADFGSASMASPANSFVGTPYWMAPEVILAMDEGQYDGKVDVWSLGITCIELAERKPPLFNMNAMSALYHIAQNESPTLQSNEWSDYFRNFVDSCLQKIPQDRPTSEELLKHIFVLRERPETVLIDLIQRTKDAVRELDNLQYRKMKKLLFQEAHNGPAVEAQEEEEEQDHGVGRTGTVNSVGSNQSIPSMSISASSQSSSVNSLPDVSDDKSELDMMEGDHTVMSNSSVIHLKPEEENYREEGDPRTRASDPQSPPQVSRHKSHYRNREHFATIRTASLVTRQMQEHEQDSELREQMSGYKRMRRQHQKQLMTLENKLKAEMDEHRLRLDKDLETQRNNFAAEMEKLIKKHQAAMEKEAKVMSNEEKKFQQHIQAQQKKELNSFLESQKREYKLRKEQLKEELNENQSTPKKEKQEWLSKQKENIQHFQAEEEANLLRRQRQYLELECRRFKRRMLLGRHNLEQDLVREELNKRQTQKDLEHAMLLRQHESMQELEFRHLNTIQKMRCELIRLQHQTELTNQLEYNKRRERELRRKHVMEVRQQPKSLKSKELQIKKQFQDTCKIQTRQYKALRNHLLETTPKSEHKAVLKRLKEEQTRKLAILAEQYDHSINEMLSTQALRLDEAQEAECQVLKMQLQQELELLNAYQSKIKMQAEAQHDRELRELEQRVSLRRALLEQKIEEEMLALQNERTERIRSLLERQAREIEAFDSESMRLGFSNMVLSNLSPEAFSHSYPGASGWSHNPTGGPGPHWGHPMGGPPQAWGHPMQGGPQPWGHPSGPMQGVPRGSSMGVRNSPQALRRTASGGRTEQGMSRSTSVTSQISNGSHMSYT
# TEST_METHOD_NOTES: radiometric filter-binding kinase assay, Kinase HotSpot
# EXPERIMENTAL_PARAMETERS: compound 0.5 µM; ATP 10 µM
MEASUREMENT_NAME: residual activity (%)
Field format: number, assumed %, no unit text.

For reference, reported residual activity for `CCCCc1c(-c2ccc(O)cc2)[nH]c2nccnc12` stands at 70.9

Sure, the documented residual activity for `Nc1ncnc2c1cnn2-c1ccccc1` is 89.5

// field: residual activity; key: `N#CCCc1ccc2c(c1)-c1[nH]c3ccc([N+](=O)[O-])cc3c1CC(=O)N2` ; value = 73.1

Consider `O=C1NC(=O)c2c1c1c3ccccc3[nH]c1c1[nH]c3cc(Br)ccc3c21` . Its measured residual activity is 68.4

====

Kindly supply the reported residual activity values for the records listed here.
# ASSAY_SYSTEM: TAOK3 (human) (UniProt Q9H2K8)
# Sequence (Q9H2K8 whole entry, looked up): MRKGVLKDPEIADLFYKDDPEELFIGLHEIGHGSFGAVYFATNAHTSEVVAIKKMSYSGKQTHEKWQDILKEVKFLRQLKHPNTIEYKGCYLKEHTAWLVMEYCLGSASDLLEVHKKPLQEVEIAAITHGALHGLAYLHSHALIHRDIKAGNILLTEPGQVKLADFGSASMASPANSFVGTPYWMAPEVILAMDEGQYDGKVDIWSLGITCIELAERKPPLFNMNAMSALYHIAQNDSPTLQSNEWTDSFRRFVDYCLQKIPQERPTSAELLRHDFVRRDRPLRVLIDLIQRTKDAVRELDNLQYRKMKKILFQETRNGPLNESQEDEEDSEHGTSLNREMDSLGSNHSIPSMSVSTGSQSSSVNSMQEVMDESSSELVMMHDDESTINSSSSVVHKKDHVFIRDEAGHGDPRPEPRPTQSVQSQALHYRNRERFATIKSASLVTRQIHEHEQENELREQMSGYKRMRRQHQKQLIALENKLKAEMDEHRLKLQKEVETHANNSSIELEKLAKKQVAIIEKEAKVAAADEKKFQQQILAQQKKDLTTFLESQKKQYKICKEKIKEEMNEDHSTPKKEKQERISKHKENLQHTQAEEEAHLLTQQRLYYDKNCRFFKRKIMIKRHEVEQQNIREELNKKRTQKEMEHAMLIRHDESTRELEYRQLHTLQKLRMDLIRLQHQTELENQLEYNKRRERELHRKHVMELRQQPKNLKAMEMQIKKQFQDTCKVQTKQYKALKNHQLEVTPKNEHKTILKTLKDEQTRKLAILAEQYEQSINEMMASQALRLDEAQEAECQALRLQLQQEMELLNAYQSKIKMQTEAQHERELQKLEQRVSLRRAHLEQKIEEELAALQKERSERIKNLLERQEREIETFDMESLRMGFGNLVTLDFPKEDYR
# TEST_METHOD_NOTES: radiometric filter-binding kinase assay, Kinase HotSpot
# EXPERIMENTAL_PARAMETERS: compound 0.5 µM; ATP 10 µM
The answer is to be given in %; state only the numeric part.

Data point: `O=c1cc(N2CCOCC2)oc2c(-c3ccccc3)cccc12` ; residual activity = 88.2

Entry under test: `N#C/C(=C1/Nc2ccccc2S1)c1ccnc(NCCc2cccnc2)n1` . Its residual activity was 87.5

The value of residual activity measured for the compound `c1ccc(-c2cnc(Nc3ccc(OCCN4CCCC4)cc3)s2)cc1` turned out to be 87.4

====

# ASSAY_SYSTEM: CDK5 CDK5R1 p35 (human) (UniProt Q00535+Q15078)
# TEST_METHOD_NOTES: radiometric filter-binding kinase assay, Kinase HotSpot
# EXPERIMENTAL_PARAMETERS: compound 0.5 µM; ATP 10 µM
For each entry below, report its residual activity value.

Entry `O=C(c1ccccc1)c1ccc(N2CCOCC2)cc1O` — recorded residual activity = 97%

According to the records, this compound `COc1cc2c(Nc3ccc(Br)cc3F)ncnc2cc1OCC1CCN(C)CC1` displays residual activity of 107%

residual activity recorded for this compound, `FC(F)(F)c1ccc(/C=C/c2nc(COc3ccc(CCCCn4ccnn4)cc3)co2)cc1` , is 99.4%

The compound listed as `Cn1cc(/C=C2\C(=O)Nc3ccc(S(N)(=O)=O)cc32)c2ccccc21` shows residual activity equal to 55.8%

Short answer for `COc1cc2c(cc1OC)-c1[nH]nc(Nc3cccc(F)c3)c1C2` : residual activity was 102%

====

# ASSAY_SYSTEM: KIT (human) (UniProt P10721)
# Sequence (P10721 whole entry, looked up): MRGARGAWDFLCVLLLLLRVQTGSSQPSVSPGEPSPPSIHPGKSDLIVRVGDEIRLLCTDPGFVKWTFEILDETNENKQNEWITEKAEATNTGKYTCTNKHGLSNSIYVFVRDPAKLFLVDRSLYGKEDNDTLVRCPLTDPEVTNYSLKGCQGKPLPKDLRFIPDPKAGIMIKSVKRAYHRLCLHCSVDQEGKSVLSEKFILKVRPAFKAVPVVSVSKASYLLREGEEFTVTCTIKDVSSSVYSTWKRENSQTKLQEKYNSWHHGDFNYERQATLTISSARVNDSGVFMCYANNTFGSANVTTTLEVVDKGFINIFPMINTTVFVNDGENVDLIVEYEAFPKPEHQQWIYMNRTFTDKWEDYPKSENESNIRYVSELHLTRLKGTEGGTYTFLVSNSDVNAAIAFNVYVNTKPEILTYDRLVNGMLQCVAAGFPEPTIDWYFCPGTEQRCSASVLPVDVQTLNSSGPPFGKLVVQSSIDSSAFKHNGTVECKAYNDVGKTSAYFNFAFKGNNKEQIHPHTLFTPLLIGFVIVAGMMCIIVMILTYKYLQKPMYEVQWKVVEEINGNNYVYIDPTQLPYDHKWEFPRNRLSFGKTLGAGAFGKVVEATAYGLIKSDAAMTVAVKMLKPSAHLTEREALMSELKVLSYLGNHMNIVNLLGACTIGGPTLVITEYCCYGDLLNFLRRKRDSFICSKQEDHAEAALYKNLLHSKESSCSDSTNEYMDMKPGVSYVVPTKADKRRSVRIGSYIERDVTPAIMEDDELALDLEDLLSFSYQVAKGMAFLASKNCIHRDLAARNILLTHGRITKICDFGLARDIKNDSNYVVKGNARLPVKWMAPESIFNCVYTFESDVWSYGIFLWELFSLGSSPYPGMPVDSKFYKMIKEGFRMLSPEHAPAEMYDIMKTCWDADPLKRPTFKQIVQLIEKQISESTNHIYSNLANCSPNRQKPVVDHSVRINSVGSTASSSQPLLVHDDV
# TEST_METHOD_NOTES: radiometric filter-binding kinase assay, Kinase HotSpot
# EXPERIMENTAL_PARAMETERS: compound 0.5 µM; ATP 10 µM
MEASUREMENT_NAME: residual activity (%)
Form entry: value (%) — number only.

Query `Nc1ncnc2c1cnn2-c1ccccc1` on KIT (human) (UniProt P10721); residual activity returned: 89.5

Known value: KIT (human) (UniProt P10721) residual activity of the molecule `COc1cccc(-c2cc(=O)c3ccccc3o2)c1N` equals 92.2

KIT (human) (UniProt P10721) residual activity of `Cc1cc(Nc2nc(-c3ccccc3)nc3ccccc23)n[nH]1` is 40.8

Record for `N/C(=N\N=C/c1ccc(-c2cccc([N+](=O)[O-])c2)o1)N[N+](=O)[O-]` under target or system KIT (human) (UniProt P10721): residual activity reported as 96.4

The reported residual activity value, KIT (human) (UniProt P10721), for `O=C(c1ccccc1)c1ccc(N2CCOCC2)cc1O` reads 96.2
